Reference source for all entries: ChEMBL document CHEMBL1961873

The following compounds are listed with their measured inhibition values.
target.entity: Tyrosine-protein kinase Mer (Homo sapiens) (UniProt Q12866);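 also: reported value is a mean inhibition of MER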
Sequence (Q12866 whole entry): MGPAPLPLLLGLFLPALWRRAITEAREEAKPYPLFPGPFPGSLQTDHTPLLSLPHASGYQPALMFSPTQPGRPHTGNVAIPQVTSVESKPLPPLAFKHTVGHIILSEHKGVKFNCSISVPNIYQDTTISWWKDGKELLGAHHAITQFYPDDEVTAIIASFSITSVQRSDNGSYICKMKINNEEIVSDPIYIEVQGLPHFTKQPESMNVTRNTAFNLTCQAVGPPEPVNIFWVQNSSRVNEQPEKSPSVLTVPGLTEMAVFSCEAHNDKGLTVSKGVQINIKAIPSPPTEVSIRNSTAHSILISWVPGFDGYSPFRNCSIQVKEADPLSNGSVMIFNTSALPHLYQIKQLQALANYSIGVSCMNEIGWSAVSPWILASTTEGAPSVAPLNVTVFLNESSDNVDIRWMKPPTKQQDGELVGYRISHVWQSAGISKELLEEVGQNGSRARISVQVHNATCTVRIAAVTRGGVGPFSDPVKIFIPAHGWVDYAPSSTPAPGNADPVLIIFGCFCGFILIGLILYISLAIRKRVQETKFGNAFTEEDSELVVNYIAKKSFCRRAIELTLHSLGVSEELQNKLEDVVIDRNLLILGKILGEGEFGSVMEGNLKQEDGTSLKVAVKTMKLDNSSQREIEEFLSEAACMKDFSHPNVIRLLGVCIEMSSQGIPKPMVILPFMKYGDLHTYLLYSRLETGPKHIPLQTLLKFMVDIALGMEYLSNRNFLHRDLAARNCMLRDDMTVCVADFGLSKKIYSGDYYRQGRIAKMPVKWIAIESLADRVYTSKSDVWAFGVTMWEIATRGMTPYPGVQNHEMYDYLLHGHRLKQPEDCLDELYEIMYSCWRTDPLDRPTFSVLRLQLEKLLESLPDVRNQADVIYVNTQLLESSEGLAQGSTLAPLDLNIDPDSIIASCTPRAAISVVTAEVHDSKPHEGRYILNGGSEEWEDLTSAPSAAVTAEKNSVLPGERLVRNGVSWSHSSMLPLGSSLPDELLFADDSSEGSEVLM
conditions.used: at 0.1 µM
measurement.type: inhibition (%)

INSERT INTO assay_data (compound, recorded_measurement) VALUES
  ('NCc1ccc(-c2nc(-c3ccc(Cl)c(O)c3)c(-c3ccncc3)[nH]2)cc1', -0.12),
  ('O=C1NC(=O)C(N2CCc3ccccc32)=C1c1ccc(Cl)cc1', 4.06),
  ('COc1ccccc1Nc1ncc(-c2ccccc2)o1', 0.01),
  ('CC1=C(C(=O)Nc2ccc3[nH]ncc3c2)C(c2ccc3ccccc3c2)CC(=O)N1 (stereo not given)', 0.87),
  ('CCn1c(-c2nonc2N)nc2cncc(C(=O)N3CC[C@H](N)C3)c21', 0.47),
  ('CCn1c(-c2nonc2N)nc2cncc(C(=O)N3CCNCC3)c21', 1.99),
  ('CCn1c(-c2nonc2N)nc2cnc(Oc3cccc(NC(=O)c4ccc(OCCN5CCOCC5)cc4)c3)cc21', 1.1),
  ('Nc1ncnc2occ(-c3ccc(NC(=O)Nc4cccc(C(F)(F)F)c4)cc3)c12', 3.32),
  ('NS(=O)(=O)c1cccc(-c2ccc3c(NC(=O)C4CC4)n[nH]c3c2)c1', 0.89),
  ('NC(=O)c1cccc(Nc2nccc(Nc3cccc4[nH]ncc34)n2)c1', -0.28);
